Cited source for all entries: patent US9255100B2

IC50 for assorted compounds
# Study Target: N-terminally GST-tagged human full length recombinant Mps-1 kinase (Homo sapiens)
# Construct: N-terminally GST-tagged human full length recombinant Mps-1 kinase; purchased Invitrogen, Karslruhe, Germany PV4071
# Sequence (P33981 whole entry): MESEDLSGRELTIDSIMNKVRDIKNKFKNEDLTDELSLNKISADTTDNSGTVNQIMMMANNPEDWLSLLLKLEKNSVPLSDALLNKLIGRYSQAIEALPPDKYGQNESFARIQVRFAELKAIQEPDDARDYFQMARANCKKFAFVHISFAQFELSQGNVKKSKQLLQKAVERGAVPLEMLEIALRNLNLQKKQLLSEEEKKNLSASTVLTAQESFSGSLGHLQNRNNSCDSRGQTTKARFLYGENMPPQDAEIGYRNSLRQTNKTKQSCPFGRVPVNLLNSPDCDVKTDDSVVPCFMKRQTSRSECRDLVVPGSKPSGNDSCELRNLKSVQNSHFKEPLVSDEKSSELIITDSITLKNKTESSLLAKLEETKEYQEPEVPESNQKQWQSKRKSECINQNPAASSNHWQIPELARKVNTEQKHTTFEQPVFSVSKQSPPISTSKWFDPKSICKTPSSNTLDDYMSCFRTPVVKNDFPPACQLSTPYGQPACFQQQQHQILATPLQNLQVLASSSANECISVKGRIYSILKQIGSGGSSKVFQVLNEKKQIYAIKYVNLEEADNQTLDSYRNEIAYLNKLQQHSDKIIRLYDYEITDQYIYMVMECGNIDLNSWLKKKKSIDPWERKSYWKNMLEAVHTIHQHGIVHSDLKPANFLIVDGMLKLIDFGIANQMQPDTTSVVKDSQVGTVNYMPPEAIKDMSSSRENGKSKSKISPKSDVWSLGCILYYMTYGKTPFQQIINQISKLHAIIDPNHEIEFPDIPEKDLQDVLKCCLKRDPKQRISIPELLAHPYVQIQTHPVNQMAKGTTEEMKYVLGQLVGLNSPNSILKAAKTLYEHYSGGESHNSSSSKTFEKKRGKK
# Assay Comment: Mps-1 kinase assay (TR-FRET)
# Assay type: biochemical
# Stated Conditions: Mps1 IC50 [nM], 10 μM ATP, 1 μM peptide substrate, 60 min at 22° C.

Compound: Cc1cc(-c2cnc3c(NCC(C)(C)O)cc(Oc4cccnc4)nn23)ccc1C(=O)NC1CC1 [Example 173]
Scale Unit: nM
Lt Gt Eq: =
IC50: 0.4

Compound: Cc1cc(-c2cnc3c(NCCC(F)(F)F)cc(-c4ccc(F)cc4)nn23)ccc1C(=O)NC1CC1 [Example 28]
Scale Unit: nM
Lt Gt Eq: <
IC50: 1

Compound: CNc1cc(Oc2ccc(OC)cc2F)nn2c(-c3ccc(C(=O)NC4CC4)c(C)c3)cnc12 [Example 534]
Scale Unit: nM
Lt Gt Eq: =
IC50: 0.1

Compound: Cc1ccc(Oc2cc(NCC(C)(C)O)c3ncc(-c4ccc(C(=O)NC5CC5)c(C)c4)n3n2)cn1 [Example 264]
Scale Unit: nM
Lt Gt Eq: =
IC50: 2

Compound: Cc1cc(-c2cnc3c(NCC(C)(C)O)cc(-c4ccc(F)c(CO)c4)nn23)ccc1C(=O)NC1CC1 [Example 165]
Scale Unit: nM
Lt Gt Eq: =
IC50: 1.8

Compound: Cc1cc(-c2cnc3c(NC[C@H]4CCCO4)cc(-c4ccncc4)nn23)ccc1C(=O)NC1CC1 [Example 35]
Scale Unit: nM
Lt Gt Eq: =
IC50: 2.5

Compound: COc1cc(Nc2cc(NCCC(F)(F)F)c3ncc(-c4ccc(C(=O)NC5CC5)c(C)c4)n3n2)ccc1F [Example 422]
Scale Unit: nM
Lt Gt Eq: =
IC50: 0.4

Compound: Cc1cc(-c2cnc3c(NCCC(F)(F)F)cc(-c4ccnn4C)nn23)ccc1C(=O)NC1CC1 [Example 10]
Scale Unit: nM
Lt Gt Eq: <
IC50: 1

Compound: Cc1cc(-c2cnc3c(NCC(C)(C)O)cc(-c4ccncc4)nn23)ccc1C(=O)NC1CC1 [Example 230]
Scale Unit: nM
Lt Gt Eq: =
IC50: 2.7

Compound: CNC(=O)c1ccc(-c2cnc3c(NCC4CCOCC4)cc(Oc4cc(F)ccc4C)nn23)cc1C [Example 572]
Scale Unit: nM
Lt Gt Eq: <
IC50: 1

Compound: Cc1cc(-c2cnc3c(NCC(C)(C)N)cc(-c4ccc(F)cc4)nn23)ccc1C(=O)NC1CC1 [Example 57]
Scale Unit: nM
Lt Gt Eq: =
IC50: 4.4

Compound: COC(C)(C)CNc1cc(-c2ccnn2C)nn2c(-c3ccc(C(=O)NC4CC4)c(C)c3)cnc12 [Example 39]
Scale Unit: nM
Lt Gt Eq: =
IC50: 3.7

Compound: C=Cc1cc(NCCC(F)(F)F)c2ncc(-c3ccc(-c4cnc(C5CC5)[nH]4)cc3)n2n1 [Example 22]
Scale Unit: nM
Lt Gt Eq: =
IC50: 35.7

Compound: Cc1cc(-c2cnc3c(NCC(C)(C)O)cc(Oc4ccccn4)nn23)ccc1C(=O)NC1CC1 [Example 274]
Scale Unit: nM
Lt Gt Eq: =
IC50: 73.8

Compound: CC(C)CNc1cc(-c2cccc(C(=O)NC(C)C)c2)nn2c(-c3ccc(C(=O)NC4CC4)cc3)cnc12 [Example 134]
Scale Unit: nM
Lt Gt Eq: <
IC50: 1
